Where these numbers come from: ChEMBL document CHEMBL1201862

# System: CAKI-1
# assay.text: NCI tumour cell line growth inhibition, 48 h
Activity calls are given as the source filed them. No stated cut-off is given here; in the data, active = GI50 up to about 1.1 µM and inactive = higher.
measured.parameter: GI50

// below: answered compounds
>>> reading("O=C(NC(=O)c1c(Cl)nc2sccn12)Nc1ccc(Cl)cc1")
"> 83.9 µM (inactive)"
>>> reading("O=C(OCC(Cl)(Cl)Cl)N1CC[C@H](C2CCCCC2)C1")
"31.6 µM (inactive)"

Please turn your attention to the following entry.
The compound identified as `COc1ccc2c(c1)c1ccc3c(c1n2C)C(=O)C=CC3=O` registered its GI50 at 8.26 µM (inactive)

---

# Tested on: HT-29
# assay.text: NCI tumour cell line growth inhibition, 48 h
Activity calls are given as the source filed them. No stated cut-off is given here; in the data, active = GI50 up to about 1.1 µM and inactive = higher.
Hello, when you answer, please use one of the following outcomes: active, inactive

>>> class_label("COc1ccc2c(c1)CCc1cc(C(N)=O)c3nnnn3c1-2")
"inactive"
>>> class_label("COc1ccc(CCCCl)c(C2=NCCc3cc(OC)c(OC)cc32)c1")
"inactive"
>>> class_label("CCOC(=O)C(O)(NC(=O)NC(O)(C(=O)OCC)C(F)(F)F)C(F)(F)F (stereo not drawn)")
"inactive"
>>> class_label("COC(=O)NNC(c1ccc(Cl)cc1)c1ccc(Cl)cc1")
"inactive"
>>> class_label("CC1(C)CC(=O)C2=C(C1)OC1=C(CC(C)(C)CC1=O)C2c1ccccc1[N+](=O)[O-] (stereo not drawn)")
"inactive"

Just curious, what result did `Cc1ccc(-c2c(C#N)c(-c3ccccc3)n(NS(=O)(=O)c3ccccc3)c(=O)c2C#N)cc1` get here?
inactive

Just curious, what result did `O=S(=O)(O)SC/C=C\CSS(=O)(=O)O` get here?
inactive

Just curious, what result did `CCN(CC)CCOCCOCC1(c2ccc(Cl)c(Cl)c2)CCCCC1` get here?
inactive

Just curious, what result did CCOC(=O)c1ccc(NC2Oc3cc4c(cc3C(c3cc(OC)c(OC)c(OC)c3)C2C)OCO4)cc1 (stereo not drawn) get here?
active

Just curious, what result did `O=P1(O)c2ccccc2CSCc2ccccc21` get here?
inactive

Just curious, what result did `CCOC(=O)CNC(SC)=C(C#N)C#N` get here?
inactive

Just curious, what result did `C[C@]12CC[C@H]3[C@@H](CCC4=CC(=O)CC[C@@]43C)[C@@H]1CC[C@@H]2C(=O)COS(=O)(=O)c1ccc(Br)cc1` get here?
inactive

Just curious, what result did CC(C)(C)COC(=O)C(C)(C)NC(=O)C(CC(=O)OCc1ccccc1)NC(=O)OCc1ccccc1 (stereo not drawn) get here?
inactive

---

# System: UACC-62
# assay.text: NCI tumour cell line growth inhibition, 48 h
Activity calls are given as the source filed them. Rule as the data show it: active = GI50 up to about 1.1 µM and inactive = higher.
What GI50 was measured for each of the following?

Please state GI50 for every compound in the list that follows.
1. O=C(CCCCCNC(=O)c1ccc(Cl)cc1)NO
2. C1=NN(Cc2ccccc2)C(N(Cc2ccccc2)Cc2ccccc2)N1 (stereo not given)

1. 3.03 µM (inactive)
2. 14 µM (inactive)

Please state GI50 for every compound in the list that follows.
1. C[N+](C)([O-])CCOc1cc2c(c3ccccc13)-c1ccccc1C2=O
2. CC1CCCC(C(=O)CC2CC(=O)NC(=O)C2)C1=O (stereo not given)
3. CCOC(=O)C(CCCNC(=O)OC(C)(C)C)N(Cc1ccc(OC)cc1OC)C(=O)CC(=O)CP(=O)(OCC)OCC (stereo not given)

14.4 µM (inactive)
> 100 µM (inactive)
> 100 µM (inactive)
